Below, each of the molecules is paired with its reported IC50 value.
ASSAYED TARGET: human TLR9 (Homo sapiens)
Sequence (Q9NR96 26-1032): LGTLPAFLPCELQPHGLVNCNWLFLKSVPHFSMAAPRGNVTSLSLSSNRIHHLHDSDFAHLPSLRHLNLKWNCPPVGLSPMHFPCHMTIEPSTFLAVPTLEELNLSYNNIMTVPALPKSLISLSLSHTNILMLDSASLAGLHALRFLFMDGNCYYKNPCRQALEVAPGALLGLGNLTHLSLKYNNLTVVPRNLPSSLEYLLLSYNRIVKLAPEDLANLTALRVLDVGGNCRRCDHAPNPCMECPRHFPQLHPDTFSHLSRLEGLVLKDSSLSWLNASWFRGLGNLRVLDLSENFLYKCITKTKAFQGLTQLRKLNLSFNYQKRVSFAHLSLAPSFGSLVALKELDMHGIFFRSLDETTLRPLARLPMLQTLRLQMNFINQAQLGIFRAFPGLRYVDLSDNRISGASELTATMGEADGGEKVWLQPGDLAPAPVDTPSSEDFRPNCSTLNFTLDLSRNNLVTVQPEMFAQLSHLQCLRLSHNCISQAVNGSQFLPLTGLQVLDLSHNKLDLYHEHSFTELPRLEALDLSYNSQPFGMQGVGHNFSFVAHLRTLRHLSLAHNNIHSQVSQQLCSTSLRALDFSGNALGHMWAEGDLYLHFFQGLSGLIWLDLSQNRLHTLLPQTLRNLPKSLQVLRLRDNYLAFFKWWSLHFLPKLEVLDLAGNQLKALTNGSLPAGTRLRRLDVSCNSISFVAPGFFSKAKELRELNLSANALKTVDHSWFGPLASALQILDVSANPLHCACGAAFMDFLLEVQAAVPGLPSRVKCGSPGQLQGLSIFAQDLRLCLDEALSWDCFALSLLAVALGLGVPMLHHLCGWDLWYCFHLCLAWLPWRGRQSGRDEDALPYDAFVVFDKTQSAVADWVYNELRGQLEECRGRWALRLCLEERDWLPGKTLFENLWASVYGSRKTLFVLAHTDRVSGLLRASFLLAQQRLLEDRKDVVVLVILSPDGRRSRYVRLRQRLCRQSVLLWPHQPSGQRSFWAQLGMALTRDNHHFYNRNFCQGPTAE
PROTOCOL TEXT: TLR9 inhibition reporter assay (HEK-Blue SEAP)
STATED CONDITIONS: HEK-Blue cells overexpressing human TLR9, stimulated with ODN2006 5 nM, 22 h incubation
Quick reminder: number only, in nM, skip the unit.

INSERT INTO assay_data (molecule, obs_value) VALUES
  ('CN1CCC(c2ccc3c(c2)[nH]c2ccc(C4CCNCC4)cc23)CC1=O (stereo not shown)', 1050),
  ('Cn1cc(-c2ccc3c(c2)[nH]c2ccc(C4CCNCC4)cc23)cn1', 648),
  ('Cc1c(-c2cc(C)c3c(c2)[nH]c2ccc(C4CCNCC4)cc23)cn(C)c(=O)c1C', 350);

// field: IC50; key: COc1cc(-c2cc3[nH]c4ccc(C5CCCN(C6CCOCC6)C5)cc4c3c(C)c2C)cn2ncnc12 (stereo not shown) ; value = 523

The molecule listed as `Cc1cc(-c2cc(C)c3ncnn3c2)cc2[nH]c3ccc(C4CCN(CC(C)(C)O)CC4)cc3c12` shows IC50 equal to 416

molecule `Cc1cc2c(cc1-c1cn(C)c(=O)c(C)c1C)[nH]c1ccc(C3CCNCC3)cc12` , IC50 observed: 158

Noted for `COc1cc(-c2cc3[nH]c4ccc(C5CCN(CC(C)(C)O)CC5)cc4c3c(C)c2C)cn2ncnc12` : its IC50 reads 264
